# Test system: ACHN renal
# Assay info: NCI tumour cell line growth inhibition, 48 h
Below is a list of entries, each paired with its recorded TGI value.

Worked cases, answers included:
CC(CC[C@@H](O)C(C)(C)O)C1[C@@H](O)CC2(C)C3CC(O)C4C(C)(C)[C@@H](OC5OC(CO)C(O)C(O)C5O)CC[C@@]45C[C@@]35CC[C@]12C (stereo not given in full): > 10 µM
Cc1cc(-c2cccc3ccccc23)c(C#N)c(=S)n1C1OC(CO)C(O)C(O)C1O (stereo not given): > 100 µM
O=c1ccn2n1Cc1ccccc1C2: > 100 µM
COc1ccc2nc3cc(Cl)ccc3c(NCCNC(=O)Cn3c(=O)n(C)c(=O)c4c3nc3c(c(=O)n(C)c(=O)n3C)[n+]4[O-])c2c1: > 100 µM

# input for lookup
Form field: reported TGI of C=CCNC(=O)N(CCCCC(NC(C)=O)C(=O)NCc1ccccc1)Cc1ccccc1 (stereo not given)
> 100 µM

* * *

# System: SN12C renal
# Assay info: NCI tumour cell line growth inhibition, 48 h
Below is a list of entries, each paired with its recorded GI50 value.

O=c1[nH]nnc2c1ncn2C1OC(CO)C(O)C1O (stereo not given): 38.3 µM
C[C@]12CC[C@@H]3c4ccc(OC(=O)N(CCCl)CCCl)cc4CC[C@H]3[C@@H]1CC[C@@H]2O: 3.37 µM
O=C1C(Cl)=C(Nc2cccc(Cl)c2)C(=O)N1Cc1ccc(Cl)cc1: 1.24 µM
Cc1cccc(/C=C/c2c(C(=O)/C=C/c3ccccc3)c(C)nc3ccccc23)c1: 1.68 µM

Form field: reported GI50 of C/C=C(\C)C(=O)NC1=CC[C@@]2(C)C(=CCC3C2CC[C@@]2(C)C3CC[C@@H]2C(C)N(C)C)C1=O (stereo not given in full)
4.47 µM

* * *

# Test system: NCI/ADR-RES ovarian
# Assay info: NCI tumour cell line growth inhibition, 48 h
Below is a list of entries, each paired with its recorded TGI value.

Worked cases, answers included:
C[C@@]1(C(=O)O)CCC[C@]2(C)C1CC[C@@]13CC(=O)[C@@](CO)(CC[C@]12O)C3 (stereo partly specified): > 100 µM
Cc1ccc2nc(Cl)c(/C=N/N3C(=O)/C(=C/c4cccc([N+](=O)[O-])c4)N=C3c3ccccc3)cc2c1: > 100 µM
CC(=O)c1ccc2c(c1)c1c(C)c3c[n+](C)ccc3c(C)c1n2C: > 100 µM
COc1ccc(CCCCl)c(C2=NCCc3cc(OC)c(OC)cc32)c1: > 100 µM

Form field: reported TGI of Cc1c(C)c(C)c(-n2c(=O)n(C)c(=O)n2-n2c(=O)n(C)c(=O)n2-c2c(C)c(C)c(C)c(C)c2C)c(C)c1C
> 100 µM

Form field: reported TGI of S=c1nc(N2CCCCC2)c2cn[nH]c2[nH]1
> 100 µM

* * *

Below is a list of entries, each paired with its recorded TGI value.
# Test system: HCC-2998 colon
# Assay info: NCI tumour cell line growth inhibition, 48 h

COc1cccc(N2CCN(CC(=O)N3CCN(c4nnc(-c5ccc(Cl)cc5)c(-c5ccc(Cl)cc5)n4)CC3)CC2)c1: > 100 µM
CN1CCN(C(=S)N(C(=O)c2ccc(Cl)cc2)c2ccccc2)CC1: > 100 µM
CC1=C(c2ccccc2)C(c2ccccc2)=C(c2ccccc2)C2(c3ccccc3)C(=O)C(C)CN12 (stereo unspecified): > 100 µM
O=[N+]([O-])c1ccc(C[P+](c2ccccc2)(c2ccccc2)c2ccccc2)cc1: > 100 µM
CC(=O)N1C(OC(C)C)CC(C)N1c1ccccc1 (stereo unspecified): > 10 µM

# input for lookup
Form field: reported TGI of CN(/N=C/c1cccc2cccnc12)c1ccc([N+](=O)[O-])cc1[N+](=O)[O-]
> 100 µM
